Entries annotated with measured inhibition at 1 h, 10 µM
biological target: ABCB1 (P-gp) (Homo sapiens); assay: Inhibition of ABCB1 in human A2780adr cells at 10 uM pre-incubated for 30 mins followed by calcein AM addition and further incubated for 60 mins by calcein AM assay; assay type: cell-based, A2780 ADR; conditions: probe calcein AM
Sequence (P08183 whole entry): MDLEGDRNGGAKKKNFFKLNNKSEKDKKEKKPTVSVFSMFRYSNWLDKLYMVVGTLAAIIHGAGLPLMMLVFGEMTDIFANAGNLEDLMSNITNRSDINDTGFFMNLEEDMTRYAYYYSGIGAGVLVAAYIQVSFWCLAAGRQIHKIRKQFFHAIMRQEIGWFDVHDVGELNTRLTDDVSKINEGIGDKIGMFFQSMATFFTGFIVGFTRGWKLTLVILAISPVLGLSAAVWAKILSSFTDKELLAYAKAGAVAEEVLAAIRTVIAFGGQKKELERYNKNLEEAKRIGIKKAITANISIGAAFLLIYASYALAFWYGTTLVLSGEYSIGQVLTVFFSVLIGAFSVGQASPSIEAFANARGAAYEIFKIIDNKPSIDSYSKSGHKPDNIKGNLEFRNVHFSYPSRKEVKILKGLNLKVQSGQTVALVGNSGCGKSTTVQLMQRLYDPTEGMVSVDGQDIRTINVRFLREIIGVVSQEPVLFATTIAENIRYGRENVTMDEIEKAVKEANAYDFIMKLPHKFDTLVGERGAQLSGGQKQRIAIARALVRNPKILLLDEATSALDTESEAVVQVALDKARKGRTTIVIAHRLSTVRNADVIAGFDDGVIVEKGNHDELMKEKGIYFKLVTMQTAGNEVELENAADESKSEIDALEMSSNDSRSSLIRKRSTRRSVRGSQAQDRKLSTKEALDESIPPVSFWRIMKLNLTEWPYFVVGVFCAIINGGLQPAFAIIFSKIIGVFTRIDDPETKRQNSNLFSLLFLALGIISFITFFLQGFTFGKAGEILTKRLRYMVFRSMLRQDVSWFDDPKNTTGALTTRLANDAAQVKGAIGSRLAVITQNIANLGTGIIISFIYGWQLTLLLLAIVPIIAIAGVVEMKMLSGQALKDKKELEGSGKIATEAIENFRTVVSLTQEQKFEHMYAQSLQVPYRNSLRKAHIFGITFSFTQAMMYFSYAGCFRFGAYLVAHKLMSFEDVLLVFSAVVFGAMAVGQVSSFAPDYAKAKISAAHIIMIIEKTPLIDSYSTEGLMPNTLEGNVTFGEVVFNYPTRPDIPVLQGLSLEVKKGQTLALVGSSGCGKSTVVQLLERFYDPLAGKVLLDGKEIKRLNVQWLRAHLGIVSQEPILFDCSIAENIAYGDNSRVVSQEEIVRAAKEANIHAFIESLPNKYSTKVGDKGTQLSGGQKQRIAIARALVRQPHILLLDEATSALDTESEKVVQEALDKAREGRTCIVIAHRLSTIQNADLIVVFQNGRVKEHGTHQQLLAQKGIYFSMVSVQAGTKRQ

Below: 3 compounds and their reported inhibition at 1 h, 10 µM.
# Query Smiles, Subject Of Test, Parameter Measured, Observed Result
rows = [
    ("CCOc1ccc(-n2nnc(-c3ccccc3NC(=O)c3ccc([N+](=O)[O-])cc3)n2)cc1", "ABCB1 (P-gp) (Homo sapiens)", "inhibition at 1 h, 10 µM", "< 25%"),
    ("COc1ccccc1-n1nnc(-c2ccccc2NC(=O)c2ccc([N+](=O)[O-])cc2)n1", "ABCB1 (P-gp) (Homo sapiens)", "inhibition at 1 h, 10 µM", "< 25%"),
    ("COc1ccc(-n2nnc(-c3ccccc3NC(=O)c3ccc(C(F)(F)F)cc3)n2)cc1", "ABCB1 (P-gp) (Homo sapiens)", "inhibition at 1 h, 10 µM", "< 25%"),
]

# query: inhibition at 1 h, 10 µM | item `COc1ccc(C(=O)Nc2ccccc2-c2nnn(-c3ccc(C(F)(F)F)cc3)n2)cc1OC` | system: ABCB1 (P-gp) (Homo sapiens)
< 25%

====

Entries annotated with measured selectivity ratio
target: BCRP (ABCG2) (Homo sapiens); assay: Potency index, ratio of IC50 for Ko143 to IC50 for compound against GFP-tagged human BCRP expressed in MDCK2 cells by Hoechst 33342 accumulation assay; assay type: cell-based; settings: MDCK2 cells expressing GFP-tagged human BCRP, probe Hoechst 33342, read-out: Ratio IC50
# output: bare number, no unit

# Query Smiles, Subject Of Test, selectivity ratio
rows = [
    ("COc1ccc(C(=O)Nc2ccccc2-c2nnn(-c3ccc(C(F)(F)F)cc3)n2)cc1", "BCRP (ABCG2) (Homo sapiens)", 2),
    ("CCCc1ccc(-n2nnc(-c3ccccc3NC(=O)c3ccc(OC)cc3)n2)cc1", "BCRP (ABCG2) (Homo sapiens)", 2),
]

Attention now turns to another entry.
# selectivity ratio lookup, item `CCCc1ccc(C(=O)Nc2ccccc2-c2nnn(-c3ccc(OC)cc3)n2)cc1`
2

====

assay: Solubility in DMSO; assay type: physicochemical
Entries annotated with measured solubility

Below: 4 compounds and their reported solubility.
# Query Smiles, Observed Result
rows = [
    ("COc1cccc(-n2nnc(-c3ccccc3NC(=O)c3ccc([N+](=O)[O-])cc3)n2)c1", "> 10 mM"),
    ("CCCc1ccc(-n2nnc(-c3ccccc3NC(=O)c3ccc([N+](=O)[O-])cc3)n2)cc1", "> 10 mM"),
    ("CCOc1ccc(-n2nnc(-c3ccccc3NC(=O)c3ccc([N+](=O)[O-])cc3)n2)cc1", "> 10 mM"),
    ("O=C(Nc1ccccc1-c1nnn(-c2ccc(C(F)(F)F)cc2)n1)c1ccc([N+](=O)[O-])cc1", "> 10 mM"),
]

Attention now turns to another entry.
# solubility lookup, item `COc1ccc(-n2nnc(-c3ccccc3NC(=O)c3ccc(OC)c(OC)c3)n2)cc1`
> 10 mM

====

target: BCRP (ABCG2) (Homo sapiens, UniProt Q9UNQ0); assay: Inhibition of GFP-tagged human BCRP expressed in MDCK2 cells pre-incubated for 30 mins followed by Hoechst 33342 addition and further incubated for 120 mins by Hoechst 33342 accumulation assay relative to XR9577; format: cell-based, MDCK-II; details: MDCK2 cells expressing GFP-tagged human BCRP, probe Hoechst 33342, read-out: Imax
Sequence (Q9UNQ0 whole entry): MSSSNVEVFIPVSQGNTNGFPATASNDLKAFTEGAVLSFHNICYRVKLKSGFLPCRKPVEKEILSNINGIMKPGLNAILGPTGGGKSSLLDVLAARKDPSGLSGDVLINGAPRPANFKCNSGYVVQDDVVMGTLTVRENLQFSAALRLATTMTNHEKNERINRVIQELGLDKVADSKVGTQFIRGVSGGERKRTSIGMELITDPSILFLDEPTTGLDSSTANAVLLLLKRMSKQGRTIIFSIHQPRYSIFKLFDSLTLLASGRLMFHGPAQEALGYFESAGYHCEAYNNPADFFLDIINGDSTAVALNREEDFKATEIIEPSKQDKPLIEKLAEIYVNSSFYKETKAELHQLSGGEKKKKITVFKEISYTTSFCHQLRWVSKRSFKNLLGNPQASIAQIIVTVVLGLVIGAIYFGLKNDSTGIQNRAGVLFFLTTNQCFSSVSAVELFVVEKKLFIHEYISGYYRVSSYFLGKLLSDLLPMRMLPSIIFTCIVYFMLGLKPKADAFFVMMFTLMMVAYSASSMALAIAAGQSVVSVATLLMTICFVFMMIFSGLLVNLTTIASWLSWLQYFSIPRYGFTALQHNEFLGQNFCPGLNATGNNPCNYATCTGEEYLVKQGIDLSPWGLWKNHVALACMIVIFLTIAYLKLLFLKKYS
Parameter Measured: Emax at 2 h (%)

Below: 5 compounds and their reported Emax at 2 h.
# Query Smiles, Emax at 2 h, %
measured = [
    ("Cc1ccc(-n2nnc(-c3ccccc3NC(=O)c3ccc([N+](=O)[O-])cc3)n2)cc1", 71),
    ("Cc1ccc(-n2nnc(-c3ccccc3NC(=O)c3ccc(C(F)(F)F)cc3)n2)cc1", 65),
    ("COc1ccc(C(=O)Nc2ccccc2-c2nnn(-c3ccc(C(F)(F)F)cc3)n2)cc1OC", 85),
    ("CCCc1ccc(C(=O)Nc2ccccc2-c2nnn(-c3ccc(OC)cc3)n2)cc1", 91),
    ("COc1ccc(-n2nnc(-c3ccccc3NC(=O)c3ccc([N+](=O)[O-])cc3)n2)cc1", 61),
]

P = COc1ccc(C(=O)Nc2ccccc2-c2nnn(-c3ccccc3OC)n2)cc1
Q = COc1cccc(-n2nnc(-c3ccccc3NC(=O)c3ccc([N+](=O)[O-])cc3)n2)c1
Field: lower Emax at 2 h | Options: P / Q Mark your answer with the label of the selected entry.
Q
(Q: 58%, P: 88%)

a = CCOc1ccc(-n2nnc(-c3ccccc3NC(=O)c3ccc(OC)c(OC)c3)n2)cc1
b = CCCc1ccc(-n2nnc(-c3ccccc3NC(=O)c3ccc([N+](=O)[O-])cc3)n2)cc1
Parameter check: reported Emax at 2 h is higher for which label, a or b ? Mark your answer with the label of the selected entry.
a
